Reference source for all entries: ChEMBL document CHEMBL3885861

- Organism: Rattus norvegicus
- MEASUREMENT_PROTOCOL: Open TG-GATES - Regimen: Daily Repeat
- Format: toxicity, organism-based, Sprague-Dawley
- Set-up: regimen Daily Repeat, gender Male, age 6 weeks
- EXPERIMENTAL_CONTEXT: in vivo, po, 100 mg/kg, […], tissue Plasma, route gavage, dose level Low, time 28 day

[
  {
    "MOLECULE": "COC1=CC(=O)C[C@@H](C)[C@]12Oc1c(Cl)c(OC)cc(OC)c1C2=O [GRISEOFULVIN]",
    "A/G": 1.3
  },
  {
    "MOLECULE": "NC(N)=Nc1nc(CSCCC(N)=NS(N)(=O)=O)cs1 [FAMOTIDINE]",
    "A/G": 1.3
  },
  {
    "MOLECULE": "CCOc1ccc(NC(=O)CC(C)O)cc1 (centres undefined) [BUCETIN]",
    "A/G": 0.8
  },
  {
    "MOLECULE": "CCOC(=O)CCC(=O)O[C@H]1[C@H](O[C@@H]2[C@@H](C)[C@H](O[C@H]3C[C@@](C)(OC)[C@@H](O)[C@H](C)O3)[C@@H](C)C(=O)O[C@H](CC)[C@@](C)(O)[C@H](O)[C@@H](C)C(=O)[C@H](C)C[C@@]2(C)O)O[C@H](C)C[C@@H]1N(C)C [ERYTHROMYCIN ETHYLSUCCINATE]",
    "A/G": 1.2
  }
]
